// provenance: ChEMBL document CHEMBL6078642

Test system: MDA-MB-231
Test: Antiproliferative activity against human MDA-MB-231 cells assessed as reduction in cell viability incubated for 2 days in presence of JQ1 by CCK8 assay
Format: functional, cell-based
Settings: MDA-MB-231, 48 h
pIC50: −log10 of the molar value.
Reported property: pIC50

Cc1ccc(OCC(=O)OC(C)(C)C)c(/C=C2\C(=O)Nc3cc(C(F)(F)F)ccc32)c1
5.43
